All figures here come from the supplement of paper PMC10307832.

tested on: NCI-H520; test: relative viability (nuclei count vs DMSO), 5 days (fraction); higher = more cells survive; conditions: first compound 1 µM
Can you tell me relative viability for the items I'm about to list?
Could you keep your reply to the number by itself?

For CCN(CC)CCCCNc1ncc2cc(-c3cc(OC)cc(OC)c3)c(NC(=O)NC(C)(C)C)nc2n1 + O=C(c1cc(Cc2n[nH]c(=O)c3ccccc23)ccc1F)N1CCN(C(=O)C2CC2)CC1 [Olaparib] (partner 8 µM) , write its relative viability.
0.261

For CCN(CC)CCCCNc1ncc2cc(-c3cc(OC)cc(OC)c3)c(NC(=O)NC(C)(C)C)nc2n1 + CC(=O)c1c(C)c2cnc(Nc3ccc(N4CCNCC4)cn3)nc2n(C2CCCC2)c1=O [Palbociclib] (partner 0.5 µM) , write its relative viability.
0.15

For O=c1cc(N2CCOCC2)oc2c(-c3cccc4c3sc3ccccc34)cccc12 + O=C(c1cc(Cc2n[nH]c(=O)c3ccccc23)ccc1F)N1CCN(C(=O)C2CC2)CC1 [Olaparib] (partner 8 µM) , write its relative viability.
0.338

For O=c1cc(N2CCOCC2)oc2c(-c3cccc4c3sc3ccccc34)cccc12 + CC(C)C[C@H](NC(=O)[C@H](Cc1ccccc1)NC(=O)c1cnccn1)B(O)O [Bortezomib] (partner 0.002 µM) , write its relative viability.
0.752

* * *

Can you tell me relative viability for the items I'm about to list?
test system: Calu-6; assay: relative viability (nuclei count vs DMSO), 5 days (fraction); higher = more cells survive; conditions: first compound 0.1 µM
Could you keep your reply to the number by itself?

For CCN(CC)CCCCNc1ncc2cc(-c3cc(OC)cc(OC)c3)c(NC(=O)NC(C)(C)C)nc2n1 + O=C(c1cc(Cc2n[nH]c(=O)c3ccccc23)ccc1F)N1CCN(C(=O)C2CC2)CC1 [Olaparib] (partner 8 µM) , write its relative viability.
0.627

For CCN(CC)CCCCNc1ncc2cc(-c3cc(OC)cc(OC)c3)c(NC(=O)NC(C)(C)C)nc2n1 + Cc1nc(NC(=O)N2CCC[C@H]2C(N)=O)sc1-c1ccnc(C(C)(C)C(F)(F)F)c1 [Alpelisib] (partner 2 µM) , write its relative viability.
0.868

For CCN(CC)CCCCNc1ncc2cc(-c3cc(OC)cc(OC)c3)c(NC(=O)NC(C)(C)C)nc2n1 + CC(C)C[C@H](NC(=O)[C@H](Cc1ccccc1)NC(=O)c1cnccn1)B(O)O [Bortezomib] (partner 0.002 µM) , write its relative viability.
1.08

* * *

test system: NCI-H1355; experiment: relative viability (nuclei count vs DMSO), 5 days (fraction); higher = more cells survive; conditions: first compound 0.8 µM
observation_type: relative viability
Could you keep your reply to the number by itself?

For O=c1cc(-c2cccc3c2Sc2ccccc2S3)oc(N2CCOCC2)c1 + Cc1cc(Nc2cc(N3CCN(C)CC3)nc(Sc3ccc(NC(=O)C4CC4)cc3)n2)n[nH]1 [Tozasertib] (partner 0.1 µM) , write its relative viability.
0.483

For O=c1cc(-c2cccc3c2Sc2ccccc2S3)oc(N2CCOCC2)c1 + O=C(c1cc(Cc2n[nH]c(=O)c3ccccc23)ccc1F)N1CCN(C(=O)C2CC2)CC1 [Olaparib] (partner 8 µM) , write its relative viability.
0.65

For COc1nc(C)cnc1NS(=O)(=O)c1cccnc1-c1ccc(-c2nnco2)cc1 [Zibotentan] + COc1cccc2cc(-c3nc([C@H]4CC[C@H](C(=O)O)CC4)n4ncnc(N)c34)[nH]c12 [OSI-027] (partner 0.5 µM) , write its relative viability.
0.458

For O=c1cc(-c2cccc3c2Sc2ccccc2S3)oc(N2CCOCC2)c1 + CCNC(=O)c1noc(-c2cc(C(C)C)c(O)cc2O)c1-c1ccc(CN2CCOCC2)cc1 [Luminespib] (partner 0.01 µM) , write its relative viability.
0.722
